experiment: NCI Yeast Anticancer Drug Screen. Data for the rad50 strain (AID 155);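 note: 0% = growth of vehicle-only cultures of the same strain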; settings: S. cerevisiae rad50 strain growth inhibition; at 1.2 µM; stronger effect = higher value
The panel holds about 79,000 compounds, 15% with a hit somewhere; the sample as a whole holds those more often.
readout-name: growth inhibition (%)
Expressed in %, but write only the number.

Worked examples follow.
{"molecule": "O/N=C/C1c2ccccc2-c2ccccc21", "units": "%", "observed-measurement": -1}
{"molecule": "C(=N/NC1=NCCN1)/c1c2ccccc2c(/C=N\\NC2=NCCN2)c2ccccc12", "units": "%", "observed-measurement": 63}
{"molecule": "CC(=O)OCC1OC(O[C@H]2C=C[C@@H](C(=O)OCc3ccccc3)n3c(=O)n(-c4ccccc4)c(=O)n32)C(OC(C)=O)C(OC(C)=O)C1OC(C)=O (stereo not given in full)", "units": "%", "observed-measurement": -14}
{"molecule": "c1ccc2c(c1)ccc1c3ccncc3ccc21", "units": "%", "observed-measurement": 12}
{"molecule": "C=C(CCCO)[C@@H]1CC[C@@](C)(O)[C@H]1C", "units": "%", "observed-measurement": -5}

## Input Please give the measured growth inhibition for this molecule: O=C1c2ccccc2C(=O)c2cc(S(=O)(=O)Nc3ccccc3)ccc21
## Output 1

## Input Any idea what growth inhibition was measured for COC(=O)c1cccc(C)c1C(=O)c1c(C)cc(C)cc1C ?
## Output -1

## Input Looking for the measured growth inhibition of Nc1ccc(S(=O)(=O)Nc2ccc(Nc3c4ccccc4nc4ccccc34)cc2)cc1 , can you help?
## Output 22

## Input Returns the measured growth inhibition for the input molecule. Input: O=C1c2cccc3cc([N+](=O)[O-])cc(c23)C(=O)N1CCN1CCCC1
## Output 16

## Input Quick one: growth inhibition of NNC(=S)Nc1cccc2ccccc12 ?
## Output -31

* * *

test: NCI Yeast Anticancer Drug Screen. Data for the rad50 strain (AID 155);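 note: 0% = growth of vehicle-only cultures of the same strain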; settings: S. cerevisiae rad50 strain growth inhibition; at 50.0 µM (retest, dose inferred, filed as 5.0)
This is part of a sample that, as a whole, favours compounds with a hit. Of some 79,000 tested, about 15% had one in any assay. Activity calls are given as the source filed them. No stated cut-off is given here; in the data, active means growth inhibition above about 70%; inactive means the rest.
Pick one: T (active), F (inactive)

Examples with answers:
{"compound": "C/C(=N\\NC(=S)NNC(=S)N(C)c1ccccc1)c1ccccn1", "classification": "T"}
{"compound": "CC1OC(OC2CCCc3c(O)c4c(c(O)c32)C(=O)c2ccccc2C4=O)CC(N)C1O (stereo not given)", "classification": "T"}
{"compound": "CO[C@@]12[C@H](COC(N)=O)C3=C(C(=O)C(C)=C(N)C3=O)N1C[C@@H]1N[C@@H]12", "classification": "T"}

Switching to the query record.
## Input What was the test verdict on Cc1onc(-c2ccccc2Cl)c1C1=N/C(=C/c2cc(Cl)cc(Cl)c2O)C(=O)O1 ?
## Output T

* * *

# reported growth inhibition; entries follow
assay: NCI Yeast Anticancer Drug Screen. Data for the mlh1 strain (AID 171);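 note: 0% = growth of vehicle-treated control cultures of the same strain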; settings: S. cerevisiae mlh1 strain growth inhibition; at 1.2 µM; stronger effect = higher value
The panel holds about 79,000 compounds, 15% with a hit somewhere; the sample as a whole holds those more often.
Numbers only here, please. The scale is %.

Here are 6 compounds together with their reported answers.
{"compound": "O=[N+]([O-])c1cccc2nc3ccccc3c(NCCc3cccc[n+]3[O-])c12", "units": "%", "growth inhibition": 0}
{"compound": "CC1C(C#N)(C#N)C(C#N)=C(N)C1(Cl)[N+](=O)[O-] (stereo unspecified)", "units": "%", "growth inhibition": 11}
{"compound": "CN(C)CCNc1cccc2sc3ccc(O)cc3c(=O)c12", "units": "%", "growth inhibition": 1}
{"compound": "O=Nn1c2ccccc2c2ccccc21", "units": "%", "growth inhibition": 27}
{"compound": "CN(C)c1ccc(/C=C/c2ccnc3ccccc23)cc1N", "units": "%", "growth inhibition": -3}
{"compound": "Nc1nc(N)c2c(n1)CCC(S(=O)(=O)c1ccc3ccccc3c1)C2 (stereo unspecified)", "units": "%", "growth inhibition": -5}

## Input Quick check: growth inhibition of Oc1ccccc1N=Cc1ccc(Cl)cc1 ?
## Output 12

## Input Which growth inhibition value is on record for COCCCN(Cc1cc(OC)c(OC)c(OC)c1)C(=S)Nc1cccc(Cl)c1 ?
## Output 0

## Input What does the data say about its growth inhibition? Entry: CC1CCC2(C(=O)O)CCC3(C)C(=CCC4C5(C)CC(O)C(O)C(C)(CO)C5C(O)CC43C)C2C1C (stereo unspecified)
## Output -29

## Input Give the measured growth inhibition of N#C/C(=C1C=C(Br)/C(=N\O)C=C\1Cl)c1cccc2ccccc12 .
## Output -37

## Input GET /values?readout=growth inhibition&item= c1ccc2c(c1)ccc1c3ccncc3ccc21
## Output 4

## Input For the compound O=C(O)c1[nH]c(=O)c2ccccc2c1Nc1ccccc1 , what growth inhibition is on record?
## Output -2

## Input Endpoint output: growth inhibition of Cc1cc(OCc2ccccc2)ccc1[N+](=O)[O-] . Value?
## Output 21

## Input Bench note: what growth inhibition did CCC(=O)N(c1ccccc1)C(C)CN1CCC(O)(c2cccc(C(F)(F)F)c2)CC1 (stereo unspecified) show?
## Output 2

## Input Fill blank: measured growth inhibition of the compound CC(C)c1[nH]nc(C(N)=O)c1N=NN(C)C is ____.
## Output 4

* * *

assay: NCI Yeast Anticancer Drug Screen. Data for the mlh1 rad18 strain (AID 175); details: S. cerevisiae mlh1 rad18 strain growth inhibition; at 5.0 µM (retest, dose inferred, filed as 0.5)
Compounds without any hit were thinned out: in the full panel of roughly 79,000, 15% have a hit. Activity calls are given as the source filed them. Rule as the data show it: active = growth inhibition above about 70%; inactive = the rest.
In this exercise, the only acceptable responses are t for active, f for inactive

Would you please look over these solved cases?
{"compound": "CC(=O)Oc1ccc(N2C(=O)C3c4[nH]c5ccccc5c4C4CCC(C(C)(C)C)CC4C3C2=O)cc1 (configuration not stated)", "classification": "t"}
{"compound": "COc1ccc(N=Nc2ccc3oc(=O)c(C(=O)Nc4ccccc4)cc3c2)cc1", "classification": "f"}
{"compound": "N#Cc1sc2c(c1OC(=O)c1ccco1)c(=O)n(-c1ccccc1)c(=S)n2-c1ccccc1", "classification": "f"}
{"compound": "CCCCC1=NNC(=O)C1", "classification": "f"}
{"compound": "Cn1c2nc3ccccc3c-2nc2ccccc21", "classification": "f"}
{"compound": "O=C1CC(=O)N(C2CCCCC2)C(=O)N1c1ccccc1S(=O)(=O)Oc1ccccc1", "classification": "f"}
{"compound": "CCOC(=O)C1=C(C)NC(C)=C(C(=O)OCC)C1c1ccc(C)cc1", "classification": "f"}
{"compound": "CC(=O)OCC1OC(O[C@H]2C=C[C@@H](C(=O)OCc3ccccc3)n3c(=O)n(-c4ccccc4)c(=O)n32)C(OC(C)=O)C(OC(C)=O)C1OC(C)=O (some centres not stated)", "classification": "t"}

## Input Per the assay record, what outcome was assigned to Nc1nc(N)c2c(n1)CCC(S(=O)(=O)c1ccc3ccccc3c1)C2 (configuration not stated) ?
## Output f

## Input Given Cc1ccccc1NC(=O)Cc1csc(N/N=C2\NC(=O)/C(=C/c3cccc([N+](=O)[O-])c3)S2)n1 , state the outcome it received in this test.
## Output f

## Input Record request — test call for CCCCCCCCCCCCCCCCNC(=O)/C(=C\c1ccc(Cl)c(Cl)c1)NC(=O)c1ccccc1
## Output f

## Input For CCOc1ccc(C(=O)CCC(=O)O)c(C)c1 , what call appears in the results of this test?
## Output f

## Input Outcome? Clc1c(Cl)c(Cl)c2c(nnn2C2CCCO2)c1Cl (configuration not stated)
## Output f

## Input Tell me the assay call for CCN(CC)CC(O)c1cc(-c2ccc(Cl)cc2)nc2c(-c3ccccc3)cccc12 (configuration not stated) please.
## Output f

## Input Look up the recorded call for O=c1[nH]c2ccccc2c2nc3ccccc3n12 in this test.
## Output f

## Input Per the assay record, what outcome was assigned to COC(=O)c1oc([N+](=O)[O-])c(Cl)c1Cl ?
## Output f

## Input What classification did Cc1ccc(I)cc1N=C=S end up with in this test?
## Output f

## Input Recorded call for CC(=O)Oc1ccc(C(=O)c2ccccc2)c(O)c1 ?
## Output f

## Input Which outcome was entered for the compound O=C(CCc1ccccc1)ON1C(=S)C(c2ccccc2)(c2ccccc2)N=C1Sc1ccccc1 in this test?
## Output f

## Input Hello, I am checking results. What call was entered for O=C1c2ccccc2CCC1(Br)Br ?
## Output t

* * *

test: NCI Yeast Anticancer Drug Screen. Data for the cln2 rad14 strain (AID 165);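 note: 0% = growth equal to vehicle treated cultures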; settings: S. cerevisiae cln2 rad14 strain, at 50.0 µM, stronger effect = higher value
Compounds without any hit were thinned out: in the full panel of roughly 79,000, 15% have a hit.
growth inhibition values by entry
Field format: number, assumed %, no unit text.

Please review the entries below; each comes with its answer.
{"molecule": "N#CC(=S)Nc1cccc(Cl)c1", "units": "%", "growth inhibition": 17.6}
{"molecule": "C/C=C/[P+](c1ccccc1)(c1ccccc1)c1ccccc1", "units": "%", "growth inhibition": 52.6}
{"molecule": "O=C1CSC(=S)N1Cc1ccc(Cl)cc1Cl", "units": "%", "growth inhibition": 98.8}
{"molecule": "CCCCCCCCCCCCCCCCNC(=O)/C(=C\\c1ccc(Cl)c(Cl)c1)NC(=O)c1ccccc1", "units": "%", "growth inhibition": 59.2}
{"molecule": "c1ccc(N2N=C3N(c4ccccc4)C2N3c2ccccc2)cc1", "units": "%", "growth inhibition": 59.5}

## Input Entry Clc1cc(Cc2ccc(N=C/C=C/c3ccccc3)c(Cl)c2)ccc1N=C/C=C\c1ccccc1 has what growth inhibition?
## Output 58.8

## Input Param item = CC1(C)C(C=O)=CCC1CC(N)=O (stereo not drawn) ; retrieve measured growth inhibition.
## Output 38.4

## Input Endpoint output: growth inhibition of Nc1ccc2c(=S)c3ccccc3[nH]c2c1 . Value?
## Output 28.3

## Input Look at this molecule and give its reported growth inhibition. Cc1ccc(S(=O)(=O)Nc2ccc3c(c2)C(O)c2ccccc2-3)cc1 (stereo not drawn)
## Output 79.4
